Overview of reported percent binding across a group of binders:
# target: T1, human B7-1 R63D on cells (Homo sapiens, UniProt P33681 35-280)
# T1 construct: mCherry-tagged point mutant; also called ARG63 ASP
# T1 chain: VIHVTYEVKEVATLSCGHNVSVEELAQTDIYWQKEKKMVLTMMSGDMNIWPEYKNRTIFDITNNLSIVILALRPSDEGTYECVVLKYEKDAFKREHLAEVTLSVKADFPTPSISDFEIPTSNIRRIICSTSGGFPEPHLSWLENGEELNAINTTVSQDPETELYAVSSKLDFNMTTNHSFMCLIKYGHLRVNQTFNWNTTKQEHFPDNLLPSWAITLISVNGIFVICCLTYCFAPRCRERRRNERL
# experiment: cell-cell binding, flow cytometry; percent of the wild-type pair
Response body: numeric value in %, unit text excluded.

INSERT INTO assay_data (binder, reported_metric, readout_number) VALUES
  ('human p75NTR F136H on cells (receptor, Fluorescent-tagged point mutant) KEACPTGLYTHSGECCKACNLGEGVAQPCGANQTVCEPCLDSVTFSDVVSATEPCKPCTECVGLQSMSAPCVEADDAVCRCAYGYYQDETTGRCEACRVCEAGSGLVHSCQDKQNTVCEECPDGTYSDEANHVDPCLPCTVCEDTERQLRECTRWADAECEEIPGRWITRSTPPEGSDSTAPSTQEPEAPPEQDLIASTVAGVVTTVMGSSQPVVTRGTTDNLIPVYCSILAAVVVGLVAYIAFKRWNSCKQNKQGANSRPVNQTPPPEGEKLHSDSGISVDSQSLHDQQPHTQTASGQALKGDGGLYSSLPPAKREEVEKLLNGSAGDTWRHLAGELGYQPEHIDSFTHEACPVRALLASWATQDSATLDALLAALRRIQRADLVESLCSESTATSPV', 'percent binding', 25),
  ('human p75NTR P150H on cells (receptor, Fluorescent-tagged point mutant) KEACPTGLYTHSGECCKACNLGEGVAQPCGANQTVCEPCLDSVTFSDVVSATEPCKPCTECVGLQSMSAPCVEADDAVCRCAYGYYQDETTGRCEACRVCEAGSGLVFSCQDKQNTVCEECHDGTYSDEANHVDPCLPCTVCEDTERQLRECTRWADAECEEIPGRWITRSTPPEGSDSTAPSTQEPEAPPEQDLIASTVAGVVTTVMGSSQPVVTRGTTDNLIPVYCSILAAVVVGLVAYIAFKRWNSCKQNKQGANSRPVNQTPPPEGEKLHSDSGISVDSQSLHDQQPHTQTASGQALKGDGGLYSSLPPAKREEVEKLLNGSAGDTWRHLAGELGYQPEHIDSFTHEACPVRALLASWATQDSATLDALLAALRRIQRADLVESLCSESTATSPV', 'percent binding', 13),
  ('human p75NTR L165H on cells (receptor, Fluorescent-tagged point mutant; also called LEU165H*) KEACPTGLYTHSGECCKACNLGEGVAQPCGANQTVCEPCLDSVTFSDVVSATEPCKPCTECVGLQSMSAPCVEADDAVCRCAYGYYQDETTGRCEACRVCEAGSGLVFSCQDKQNTVCEECPDGTYSDEANHVDPCHPCTVCEDTERQLRECTRWADAECEEIPGRWITRSTPPEGSDSTAPSTQEPEAPPEQDLIASTVAGVVTTVMGSSQPVVTRGTTDNLIPVYCSILAAVVVGLVAYIAFKRWNSCKQNKQGANSRPVNQTPPPEGEKLHSDSGISVDSQSLHDQQPHTQTASGQALKGDGGLYSSLPPAKREEVEKLLNGSAGDTWRHLAGELGYQPEHIDSFTHEACPVRALLASWATQDSATLDALLAALRRIQRADLVESLCSESTATSPV', 'percent binding', 26);

Now consider the entry below.
Q: Answer with reported percent binding of human p75NTR F136K on cells (receptor, Fluorescent-tagged point mutant) KEACPTGLYTHSGECCKACNLGEGVAQPCGANQTVCEPCLDSVTFSDVVSATEPCKPCTECVGLQSMSAPCVEADDAVCRCAYGYYQDETTGRCEACRVCEAGSGLVKSCQDKQNTVCEECPDGTYSDEANHVDPCLPCTVCEDTERQLRECTRWADAECEEIPGRWITRSTPPEGSDSTAPSTQEPEAPPEQDLIASTVAGVVTTVMGSSQPVVTRGTTDNLIPVYCSILAAVVVGLVAYIAFKRWNSCKQNKQGANSRPVNQTPPPEGEKLHSDSGISVDSQSLHDQQPHTQTASGQALKGDGGLYSSLPPAKREEVEKLLNGSAGDTWRHLAGELGYQPEHIDSFTHEACPVRALLASWATQDSATLDALLAALRRIQRADLVESLCSESTATSPV
A: 29
